# credit: the Human Domainome abundance scans (Beltran et al. 2025)

B1: Homeobox protein cut-like 1, residues 548 to 629; numbered along this chain, P39880 (parent)
chain: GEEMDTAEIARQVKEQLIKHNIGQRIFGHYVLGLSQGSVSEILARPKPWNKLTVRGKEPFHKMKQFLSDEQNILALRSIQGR

# Variants of: B1
# PROTOCOL_TEXT: abundance fitness (aPCA) (normalised: wild type 0, dead -1); higher = more abundant; growth selection in yeast, the domain comes from the species named
# MEASUREMENT_SETUP: Homo sapiens
Each entry gets false (0) if its abundance fitness stays under -0.2, and true (1) if its abundance fitness is -0.2 or above.

Decide: abundance fitness of Q36I >= -0.2?
true (1)

One more variant: F66N
false (0)

Can you check S68Q next?
true (1)

What would you report for E70M ?
true (1)

Param item: L76E
false (0)

Next entry: A75L
true (1)

Could you do the same for R82C , please?
true (1)

Ok, now V39T
true (1)

Also need R82L , thanks.
true (1)

Request: I9T
false (0)

Then this variant: A7F
true (1)

Field entry: S78G
true (1)
